test: IVIVE: steady-state concentration (Css), generic HTTK model; set-up: species or system human; details: Assuming 1 mg/kg/day dose rate; BW 70 kg
Measure name: Css (mg/L)
Numbers only, in mg/L.

Recorded results for 4 compounds are shown here.
CNS(=O)(=O)C(F)(F)C(F)(F)C(F)(F)C(F)(F)C(F)(F)C(F)(F)C(F)(F)C(F)(F)F : 0.58
O=S(=O)(O)C(F)(F)C(F)(F)OC(F)(F)C(F)(F)F : 16.68
C[N+](C)(C)CCCNS(=O)(=O)C(F)(F)C(F)(F)C(F)(F)C(F)(F)C(F)(F)C(F)(F)C(F)(F)C(F)(F)F.[I-] : 19.15
O=C(O)CCC(F)(F)C(F)(F)C(F)(F)C(F)(F)C(F)(F)C(F)(F)C(F)(F)F : 2.20

For every listed record, write down its Css (mg/L).
1. O=C(O)C(F)(F)OC(F)(F)C(F)(F)OC(F)(F)C(F)(F)OC(F)(F)F
2. O=C(O)C(F)(F)C(F)(F)C(F)(F)C(F)(F)C(F)(F)C(F)(F)C(F)(F)F
3. O=C(O)C(F)(F)OC(F)(F)C(F)(F)OC(F)(F)F
4. O=S(=O)(O)CCC(F)(F)C(F)(F)C(F)(F)C(F)(F)C(F)(F)C(F)(F)C(F)(F)C(F)(F)F
5. O=C(O)C(F)(F)C(F)(F)C(F)(F)C(F)(F)C(F)(F)C(F)(F)F

Result:
804.48
241.34
77.85
1.81
603.36

###

experiment: IVIVE: steady-state concentration (Css), generic HTTK model; set-up: species or system human; settings: QL 1500000 uL/min
Measure name: CLhep (L/h)
One number for each entry, in L/h.

These solved cases illustrate the format of a correct answer.
O=C(O)C(F)(F)C(F)(F)C(F)(F)C(F)(F)C(F)(F)F [Perfluorohexanoic acid (PFHxA)] : 0.000
O=C(O)C(F)(F)OC(F)(F)C(F)(F)OC(F)(F)C(F)(F)C(F)(F)C(F)(F)F [Perfluoro-3,6-dioxadecanoic acid] : 0.000
O=C([O-])C(F)(F)C(F)(F)C(F)(F)C(F)(F)C(F)(F)C(F)(F)C(F)(F)F.[Na+] [Sodium perfluorooctanoate (NaPFOA)] : 0.000
O=C(Cl)C(F)(F)C(F)(F)C(F)(F)C(F)(F)C(F)(F)C(F)(F)C(F)(F)F : 0.000
O=S(=O)(O)CCC(F)(F)C(F)(F)C(F)(F)C(F)(F)C(F)(F)C(F)(F)C(F)(F)C(F)(F)F : 1.146

Please state CLhep for every compound in the list that follows.
1. NS(=O)(=O)C(F)(F)C(F)(F)C(F)(F)C(F)(F)C(F)(F)C(F)(F)C(F)(F)C(F)(F)F [Perfluorooctane sulfonamide (PFOSA)]
2. O=C(O)C(F)(F)C(F)(F)C(F)(F)C(F)(F)C(F)(F)C(F)(F)C(F)(F)C(F)(F)C(F)(F)C(F)F
3. O=S(=O)(O)C(F)(F)C(F)(F)C(F)(F)C(F)(F)C(F)(F)C(F)(F)C(F)(F)C(F)(F)F [Perfluorooctanesulfonate (PFOS-)]

Result:
1.313
0.000
0.000

Report CLhep for each item below.
1. O=C(O)C(F)(F)C(F)(F)F [Perfluoropropanoic acid (PFPrA)]
2. O=S(=O)(O)C(F)(F)C(F)(F)C(F)(F)C(F)(F)C(F)(F)C(F)(F)C(F)(F)F [Perfluoroheptanesulfonic acid (PFHpS)]

Result:
1. 0.000
2. 0.000

Please give CLhep, item by item, for the list that follows.
1. O=S(=O)(O)C(F)(F)C(F)(F)C(F)(F)C(F)(F)F [Perfluorobutanesulfonic acid (PFBS)]
2. O=S(=O)(O)CCC(F)(F)C(F)(F)C(F)(F)C(F)(F)F
3. O=C(O)C(F)(F)OC(F)(F)C(F)(F)OC(F)(F)F
4. O=P(O)(O)CCC(F)(F)C(F)(F)C(F)(F)C(F)(F)C(F)(F)C(F)(F)F [2-(Perfluorohexyl)ethylphosphonic acid]

Result:
1. 1.150
2. 0.408
3. 0.000
4. 0.000
